Cited source: the supplement of paper PMC10567573

B1: SETD8 (parent)
chain: KKAQGKTQQNRKLTDFYPVRRSSR

Variants of: B1
Assay: protein stability index of a GFP-peptide fusion (GPS, HEK-293T) (PSI 1-6); higher = more stable;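 also: lentivirally expressed fusions sorted by FACS into six bins by GFP to DsRed ratio, PSI derived from sequencing read proportions per bin multiplied by bin number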
Settings: c terminus: a fixed tail appended
Measurement Name: protein stability index
Give the figure by itself; no unit, no explanation.

For `K6T` , what is its reported protein stability index?
3.58

For `T14H` , what is its reported protein stability index?
3.1

For `S22H` , what is its reported protein stability index?
1.38

For `K2I` , what is its reported protein stability index?
3.63

For `S23M` , what is its reported protein stability index?
3.18
